Biological target: PAR2 (HT-29 cells, trypsin activation) (Homo sapiens, UniProt P55085)
Construct: host or cells: HT-29 cells
Sequence (P55085 26-397): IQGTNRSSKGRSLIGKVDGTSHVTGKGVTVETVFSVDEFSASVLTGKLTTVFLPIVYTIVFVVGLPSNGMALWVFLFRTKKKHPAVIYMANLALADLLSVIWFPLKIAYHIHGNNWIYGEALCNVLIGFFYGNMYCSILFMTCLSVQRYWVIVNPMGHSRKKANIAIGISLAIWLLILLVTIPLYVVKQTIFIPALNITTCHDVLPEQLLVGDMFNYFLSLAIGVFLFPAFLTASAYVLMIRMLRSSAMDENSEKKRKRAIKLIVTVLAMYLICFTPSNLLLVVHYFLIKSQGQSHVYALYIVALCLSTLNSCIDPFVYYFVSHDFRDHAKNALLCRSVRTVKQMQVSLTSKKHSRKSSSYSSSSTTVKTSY
Test: Ca FLIPR TETRA assay, ANTAGONIST mode, stimulation with 3.1 U/mL trypsin
Type: cell-based
Settings: HT-29 cells, antagonist mode, stimulation with 3.1 U/mL trypsin
Lab note: anything with IC50 below 4 nM is marked condition met; values at 4 nM or higher are marked condition not met.

| compound | category label |
| --- | --- |
| Cc1cccc(-c2cc(C(C)(C)C)c3nc(C(=O)N4CCN(C(=O)c5ccn[nH]5)CC4(C)C)cn3n2)c1 | condition not met |
| C[C@H]1C(=O)NCCN1C(=O)c1cn2nc(-c3ccc(F)cc3)cc(C(C)(C)C)c2n1 | condition not met |
| CC(C)c1cc(-c2ccc(Cl)cc2)nn2cc(C(=O)N3CCN(C(=O)[C@H]4C[C@H](O)C4)CC3(C)C)nc12 | condition not met |

Okay, next one:
Just wondering, is IC50 of Cc1cc(-c2cc(C(C)(C)C)c3nc(C(=O)N4CCN(C(=O)c5ccn[nH]5)CC4(C)C)cn3n2)ccc1F below 4 nM?
condition met

###

Target: PAR2 (HT-29 cells, SLIGKV activation) (Homo sapiens, UniProt P55085)
Construct: host or cells: HT-29 cells
Sequence (P55085 26-397): as above
Test: Ca FLIPR TETRA assay, ANTAGONIST mode, stimulation with 8 μM SLIGKV
Type: cell-based
Conditions: HT-29 cells, antagonist mode, stimulation with 8 μM SLIGKV
measured metric: log10(IC50) (log10 of the value in nM)
Kindly note that the scale is log10 and the underlying IC50 is in nM.

| molecule | test target | log10(IC50) |
| --- | --- | --- |
| Cc1n[nH]c(C(=O)N2CCN(C(=O)c3cn4nc(-c5ccc(Br)cc5)cc(C(C)(C)C)c4n3)C(C)(C)C2)n1 [Compound I-519] | PAR2 (HT-29 cells, SLIGKV activation) (Homo sapiens, UniProt P55085) | -0.40 |

Hi! Can you tell me log10(IC50) for each of these molecules?
1. CC(C)(O)c1cc(-c2ccc(F)cc2)nn2cc(C(=O)N3CCNC(=O)C3(C)C)nc12 [Compound I-184]
2. Cc1cccc(-c2cc(C(C)(C)C)c3nc(C(=O)N4CCN(C(=O)c5cc(C)n[nH]5)CC4(C)C)cn3n2)c1 [Compound I-406]
3. CC1(C)CN(C(=O)C2CC(O)(C(F)(F)F)C2)CCN1C(=O)c1cn2nc(-c3ccc(F)cc3)cc(C(F)(F)F)c2n1 (stereo not shown) [Compound I-272]
4. CC(C)c1cc(-c2ccc(C(F)(F)F)cc2)nn2cc(C(=O)N3CCN(C(=O)c4ccn[nH]4)CC3(C)C)nc12 [Compound I-246]
5. CC(C)(C)c1cc(C2CCC(F)(F)CC2)nn2cc(C(=O)N3CCN(C(=O)[C@H]4CC[C@H](C(=O)O)CC4)CC3(C)C)nc12 [Compound I-506]

2.10
0.34
0.18
0.23
2.03

Name the recorded log10(IC50) of the molecule listed here: CC(C)c1cc(-c2ccc(F)cc2)nn2cc(C(=O)N3CCN(C(=O)c4cccnn4)CC3(C)C)nc12 [Compound I-307]
1.72

###

Give measured IC50 for each item. Keep answers brief.
Target: PAR2 (HT-29 cells, trypsin activation) (Homo sapiens, UniProt P55085)
Construct: host or cells: HT-29 cells
Assay: Ca FLIPR TETRA assay, ANTAGONIST mode, stimulation with 3.1 U/mL trypsin
Assay type: cell-based
Details: HT-29 cells, antagonist mode, stimulation with 3.1 U/mL trypsin
One number for each entry, in nM.

Some solved cases for reference:
| smiles input | endpoint value |
| --- | --- |
| Cc1ccc(-c2cc(C(C)(C)C)c3nc(C(=O)N4CCN(C(=O)c5ccccn5)CC4(C)C)cn3n2)cc1 | 2.2 |
| CC(C)(C)c1cc(-c2ccc(F)cc2)nn2cc(C(=O)N3CCN(C(=O)c4cn[nH]c4)CC3(C)C)nc12 | 0.8 |

Provide IC50 value for the following compound: C[C@@H]1C[C@H](c2cc(-c3ccc(F)cc3)nn3cc(C(=O)N4CCN(C(=O)c5ccn[nH]5)CC4(C)C)nc23)C[C@H](C)O1
26.8
